# procedureText: Solubility of amines and amine mixtures in acrylate resins
# Assay type: physicochemical
# testParameters: in TMPTA (trimethylolpropane triacrylate); stays in solution at least 7 days; above 10% w/w not tested
experimentalReadout: Solubility (% w/w at ~15-20° C.)

Study these solved cases before continuing.
- compound: "CN(C)c1ccc(C(=O)OCC(COC(=O)c2ccc(N(C)C)cc2)(COC(=O)c2ccc(N(C)C)cc2)COC(=O)c2ccc(N(C)C)cc2)cc1 [AC4]"
  measuredResult: "<1 % w/w"
- compound: "CCC(COC(=O)c1ccc(N(C)C)cc1)(COC(=O)c1ccc(N(C)C)cc1)COC(=O)c1ccc(N(C)C)cc1 [AC3]"
  measuredResult: "<2 % w/w"

Request: GET /values?readout=Solubility (% w/w at ~15-20° C.)&item= CN(C)c1ccc(C(=O)OCC(COC(=O)c2ccc(N(C)C)cc2)OC(=O)c2ccc(N(C)C)cc2)cc1 [AC5]
Result: <1 % w/w
